Tested on: human hepatocytes
Experiment: Human Hepatocyte Stability Assay
Assay type: in vitro ADME
Conditions: comparison table with known compounds; head prints (units)

>  <COMPOUND>
COc1ccc(Nc2nc(-c3ccc(N)nc3)cn3ccnc23)cc1OC [reference compound]

>  <TARGET>
human hepatocytes

>  <Hheps CL>
0.90 L/h/kg

$$$$
>  <COMPOUND>
Nc1cncc(-c2cn3ccnc3c(Nc3ccc(N4CCN(C5COC5)CC4)cc3)n2)n1

>  <TARGET>
human hepatocytes

>  <Hheps CL>
0.055 L/h/kg

$$$$
>  <COMPOUND>
Cc1ncc(-c2cn3ccnc3c(Nc3ccc(N4CCOCC4)cc3)n2)cc1N [reference compound]

>  <TARGET>
human hepatocytes

>  <Hheps CL>
0.80 L/h/kg

$$$$

----------
Tested on: human hepatocytes
Experiment: Human Hepatocyte Stability Assay
Assay type: in vitro ADME
Settings: comparison table with known compounds; head prints (units)
MEASURED PARAMETER: Hheps CL (mL/min/kg)

>  <COMPOUND>
Nc1cncc(-c2cn3ccnc3c(Nc3ccc(N4CCO[C@@H](CO)C4)cc3)n2)n1

>  <UNIT LABEL>
mL/min/kg

>  <VALUE MEASURED>
1.5

$$$$
>  <COMPOUND>
COc1ccc(Nc2nc(-c3cccc(N)c3)cn3ccnc23)cc1OC [reference compound]

>  <UNIT LABEL>
mL/min/kg

>  <VALUE MEASURED>
4

$$$$
>  <COMPOUND>
Nc1cncc(-c2cn3ccnc3c(Nc3ccc(N4CCOCC4)cc3)n2)c1 [reference compound]

>  <UNIT LABEL>
mL/min/kg

>  <VALUE MEASURED>
11.3

$$$$
>  <COMPOUND>
Cc1c(-c2cncc(N)n2)nc(Nc2ccc(N3CCN(C4COC4)CC3)cc2)c2nccn12

>  <UNIT LABEL>
mL/min/kg

>  <VALUE MEASURED>
1.3

$$$$

----------
System: human hepatocytes
Experiment: Human Hepatocyte Stability Assay
Format: in vitro ADME
Settings: comparison table with known compounds; head prints (units)
Collected Hheps CL values appear next to each entry.

>  <COMPOUND>
Nc1cncc(-c2cn3ccnc3c(Nc3ccc(N4CCN(C5COC5)CC4)c(OCCO)c3)n2)n1 [Ex.-5]

>  <Hheps CL (mL/min/kg)>
1.2

$$$$
>  <COMPOUND>
Cc1ncc(-c2cn3ccnc3c(Nc3ccc(N4CCN(C5COC5)CC4)cc3)n2)nc1N [Ex.-1]

>  <Hheps CL (mL/min/kg)>
2

$$$$
>  <COMPOUND>
Nc1cncc(-c2cn3ccnc3c(Nc3ccc(N4CCN(CC(CO)CO)CC4)cc3)n2)n1 [Ex.-6]

>  <Hheps CL (mL/min/kg)>
1.3

$$$$
>  <COMPOUND>
Cc1ncc(-c2cn3ccnc3c(Nc3ccc(N4CCN(C5COC5)CC4)c(OCCO)c3)n2)nc1N [Ex.-7]

>  <Hheps CL (mL/min/kg)>
0.83

$$$$
